- System: tracheal specimens excised from guinea pigs (bronchial smooth muscle)
- experiment summary: Inhibitory effect on KCl-induced contraction of tracheal specimens excised from guinea pigs
- Set-up: species or system guinea pig
- conditions used: Cavia porcellus; 20 mM KCl-induced contraction; maximum relaxation with 100 μM papaverine = 100%; 37 °C; 3 specimens; cumulative addition; read-out: Bronchial smooth muscle-relaxation ratio
Where a name gives a salt, the structure may show the parent alone.
measured parameter: Emax (%)
The response must be a number in % with no trailing unit.

Examples with their reported Emax follow.
### Prompt I would be grateful if you could share the reported Emax for O=S(=O)(c1cccc2ncsc12)N1CCCNCC1 [Compound 1, hydrochloride] .
### Response 30.5

### Prompt How about this compound: O=S(=O)(NCCNCc1cccc(F)c1)c1cccc2ncsc12 [Compound 10, hydrochloride]
### Response 78

### Prompt How about this compound: NCCNS(=O)(=O)c1cccc2ncsc12 [Compound 4, hydrochloride]
### Response 33

### Prompt How about this compound: CNCCNS(=O)(=O)c1cccc2ncsc12 [Compound 5, hydrochloride]
### Response 22

### Prompt How about this compound: O=S(=O)(NCCNCc1ccc2c(c1)OCO2)c1cccc2ncsc12 [Compound 7, hydrochloride]
### Response 96.8

---
### Prompt I would be grateful if you could share the reported Emax for CC1CNCCN1S(=O)(=O)c1cccc2ncsc12 (centres unmarked) [Compound 3, hydrochloride] .
### Response 21.1

### Prompt How about this compound: O=S(=O)(NCCN1CCN(CCCOc2ccccc2)CC1)c1ccc2ncsc2c1 [Comparative compound, dihydrochloride, reference compound]
### Response 6.8

### Prompt How about this compound: CC(NCCNS(=O)(=O)c1cccc2ncsc12)c1cccc(Cl)c1 (centres unmarked) [Compound 9, hydrochloride]
### Response 74.6

### Prompt How about this compound: O=S(=O)(c1ccc2ncsc2c1)N1CCNCC1 [Compound 6, hydrochloride]
### Response 27.2

### Prompt How about this compound: O=S(=O)(c1cccc2ncsc12)N1CCNCC1 [Compound 2, hydrochloride]
### Response 24

### Prompt How about this compound: O=S(=O)(NCCNCc1cccc(Cl)c1)c1cccc2ncsc12 [Compound 8, hydrochloride]
### Response 85.7

====

Reported pKi by item:
- study target: protein kinase C (PKC)
- experiment summary: Measurement of the activity to inhibit protein kinase C (PKC)
- conditions used: ATP 1, 3, 5 and 10 μM; double reciprocal plotting; PKC from rat brain; read-out: PKC inhibiting activity in terms of Ki value
Structures can show the parent of a compound that is named as a salt.
Note on pKi: it is the negative log10 of concentration, concentration in mol/L.

### Prompt I would be grateful if you could share the reported pKi for CC1CNCCN1S(=O)(=O)c1cccc2ncsc12 (centres unmarked) [Compound 3, hydrochloride] .
### Response 4.82

### Prompt How about this molecule: O=S(=O)(c1ccc2ncsc2c1)N1CCNCC1 [Compound 6, hydrochloride]
### Response 4.82

====

- study target: protein kinase C (PKC)
- experiment summary: Measurement of the activity to inhibit protein kinase C (PKC)
- conditions used: ATP 1, 3, 5 and 10 μM; double reciprocal plotting; PKC from rat brain; read-out: PKC inhibiting activity in terms of Ki value
Counter-ions that a name gives are not always drawn.
measured parameter: Ki (µM)
The response must be a number in µM with no trailing unit.

Examples with their reported Ki follow.
### Prompt I would be grateful if you could share the reported Ki for O=S(=O)(c1cccc2ncsc12)N1CCNCC1 [Compound 2, hydrochloride] .
### Response 5

### Prompt How about this molecule: O=S(=O)(NCCNCc1cccc(F)c1)c1cccc2ncsc12 [Compound 10, hydrochloride]
### Response 7

// next item, Ki requested
### Prompt I would be grateful if you could share the reported Ki for CC(NCCNS(=O)(=O)c1cccc2ncsc12)c1cccc(Cl)c1 (stereo not drawn) [Compound 9, hydrochloride] .
### Response 25
